system: Cn+St pancreatitis; experiment: Antipancreatitis activity: severity of pancreatitis and wet weight of pancreas in Cn+St pancreatitis (cerulein plus water immersion stress); assay type: in vivo, SD rats (female, 12-week-old); details: 10 mg/kg, oral gavage 18 and 2 hours before first Cn dosing; mean ± S.E.
# Wet weight of pancreas per record follows

Worked cases, answers included:
                                   compound                  metric  observed_measurement
0  Nc1nc(-c2cc(Cl)ccc2Cl)nc(N2C[C@H](O)C[C@H]2CO)n1 [Compound 3]  Wet weight of pancreas      6.67 ± 0.37 g/kg
1  Nc1nc(-c2cc(Cl)ccc2Cl)nc(N2CCOCC2)n1 [Compound 4]  Wet weight of pancreas      7.33 ± 0.23 g/kg
2  Nc1nc(-c2cc(Cl)ccc2Cl)nc(N(CCO)CCO)n1 [Compound 1]  Wet weight of pancreas      9.33 ± 0.66 g/kg
3  Cl.Nc1nc(-c2cc(Cl)ccc2Cl)nc(N2CCC[C@H]2CO)n1 [Compound 2]  Wet weight of pancreas      7.31 ± 0.64 g/kg

Next compound, please.
get_value(item= Nc1nc(N)nc(-c2cc(Cl)ccc2Cl)n1.O=C(O)/C=C\C(=O)O [irsogladine maleate, reference compound] , readout=Wet weight of pancreas) returns 10.09 ± 0.51 g/kg
